# EXPERIMENTAL SYSTEM: UniProtKB Q02769
# Sequence (Q02769 1-416): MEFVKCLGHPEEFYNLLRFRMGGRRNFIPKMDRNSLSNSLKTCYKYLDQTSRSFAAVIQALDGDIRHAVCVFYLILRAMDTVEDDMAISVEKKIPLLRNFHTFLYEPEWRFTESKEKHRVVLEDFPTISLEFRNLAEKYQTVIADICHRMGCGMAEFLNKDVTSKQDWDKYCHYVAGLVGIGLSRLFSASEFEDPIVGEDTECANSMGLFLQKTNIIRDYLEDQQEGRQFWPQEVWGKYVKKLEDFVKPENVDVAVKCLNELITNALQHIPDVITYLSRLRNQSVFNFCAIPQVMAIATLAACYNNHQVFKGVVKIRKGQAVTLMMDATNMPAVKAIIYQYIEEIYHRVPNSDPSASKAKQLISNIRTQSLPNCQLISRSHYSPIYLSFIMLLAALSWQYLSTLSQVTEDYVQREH
// reported IC50 for each item listed
Enter your answer as a number in nM; do not include the unit.

// solved cases for IC50 follow
>>> print(df.to_string())
                                   compound  value_observed
0  O=P(O)(O)C(O)(CCNC1CCN(Cc2ccccc2)CC1)P(=O)(O)O            2300
1  O=P(O)(O)C(O)(CCNC1CCCc2ccccc21)P(=O)(O)O (centres unmarked)             130
2  O=P(O)(O)C(O)(CCNC1C2CC3CC(C2)CC1C3)P(=O)(O)O (centres unmarked)             440
3        O=P(O)(O)C(O)(CCN1CCCCC1)P(=O)(O)O             720
4       O=P(O)(O)C(O)(CCN1CCCCCC1)P(=O)(O)O             130
5  O=P(O)(O)C(O)(CCN1CC2CCC(CC2)C1)P(=O)(O)O              16

For this compound ( O=P(O)(O)C(O)(CCN1CCCC2CCCCC21)P(=O)(O)O (centres unmarked) ), measured IC50 is 19

# IC50 (compound: O=P(O)(O)C(O)(CCNC1CC2CCC1C2)P(=O)(O)O (centres unmarked) ) is 600
